tested on: Plasmodium falciparum; experiment: GSK_TCMDC: Inhibition of Plasmodium falciparum 3D7 in whole red blood cells, using parasite LDH activity as an index of growth. Test compounds present at 2uM; type: functional
readoutName: Inhibition (%)
Respond numerically; units are % and should not be typed.

(Q) I would be grateful if you could share the reported Inhibition for COc1ccc(CNc2ncnc3c2[nH]c2ccc(F)cc23)cc1 .
(A) 93

(Q) I would be grateful if you could share the reported Inhibition for COc1ccc(NC(=O)N2CCCN(CCCCCNC(=O)/C=C/c3ccc(Cl)cc3)CC2)cc1Cl .
(A) 97

(Q) I would be grateful if you could share the reported Inhibition for Cc1cc(N[C@@H](CC(C)C)C(=O)NCCOc2ccccc2)nc(Nc2ccccc2)n1.O=C(O)C(F)(F)F .
(A) 93
